Test summary: NCI Yeast Anticancer Drug Screen. Data for the bub3 strain (AID 167)
Experimental setup: S. cerevisiae bub3 mutant strain, at 5.0 µM (retest, dose inferred, filed as 0.5)
This is part of a sample that, as a whole, favours compounds with a hit. Of some 79,000 tested, about 15% had one in any assay. The source made the active and inactive calls. No stated cut-off is given here; in the data, active means growth inhibition above about 70%; inactive means the rest.
Give your call using only these classes: active, inactive

Which outcome was entered for the molecule `CCC(CC)(C(=O)Nc1ccc2c(c1)c(=O)c1ccccc1n2C)C(=O)Nc1ccc2c(c1)c(=O)c1ccccc1n2C` in this test?
inactive

Which outcome was entered for the molecule `COC/C=N/Nc1ccc([N+](=O)[O-])cc1` in this test?
active

Which outcome was entered for the molecule `O=C([O-])c1ccc([I+]c2ccccc2)cc1` in this test?
inactive

Which outcome was entered for the molecule CC1CN(CC(O)c2ccc(Br)cc2)CC(C)O1 (stereo not given) in this test?
inactive

Which outcome was entered for the molecule `CCOC(=O)[C@]12CCC[C@@]1(O)NC(=O)c1cnccc12` in this test?
inactive

Which outcome was entered for the molecule `CCN(CC)CCOc1ccc(-c2nc3cc(Cl)ccc3s2)cc1` in this test?
inactive

Which outcome was entered for the molecule `CC(=O)ON=C1C=CC(=C(C#N)c2ccccc2)C=C1` in this test?
active

Which outcome was entered for the molecule COC(=O)C([NH-])c1ccccc1.COC(=O)C([NH-])c1ccccc1.[Cl][Pt+2][Cl] (stereo not given) in this test?
inactive

Which outcome was entered for the molecule CC(=O)OC1C(C)OC(OC(=O)C2CCC3C(C2)OC2(CC(OC(=O)/C=C/c4ccccc4)C(C)CO2)C32CO2)C(OC2OC(C)C(O)C(OC(C)=O)C2O)C1O (stereo not given) in this test?
inactive

Which outcome was entered for the molecule `CCC/C(=N\NC(=S)N1CCCCCC1)c1ccccn1` in this test?
active

* * *

Test summary: NCI Yeast Anticancer Drug Screen. Data for the sgs1 mgt1 strain (AID 161);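 further: 0% = growth of cultures given vehicle only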
Experimental setup: S. cerevisiae sgs1 mgt1 strain, at 50.0 µM (retest, dose inferred, filed as 5.0)
The panel holds about 79,000 compounds, 15% with a hit somewhere; the sample as a whole holds those more often. Active and inactive are the calls of the source. Rule as the data show it: active = growth inhibition above about 70%; inactive = the rest.
Give your call using only these classes: active, inactive

Which outcome was entered for the molecule `COc1ccc(/C=C/c2c[n+]([O-])ccc2[N+](=O)[O-])cc1` in this test?
active

Which outcome was entered for the molecule `Nc1ccc(S(=O)(=O)O)c2cccc(S(=O)(=O)O)c12` in this test?
inactive

Which outcome was entered for the molecule CCOC(=O)C(CCc1ccccc1[N+](=O)[O-])C(C)=O (configuration not stated) in this test?
inactive

Which outcome was entered for the molecule CC1N=C(Cc2ccccc2)SC1C (configuration not stated) in this test?
active

Which outcome was entered for the molecule `Oc1ccc(-c2ccccc2)cc1Br` in this test?
active

Which outcome was entered for the molecule `CCCCCCCNCCCCCC` in this test?
active

Which outcome was entered for the molecule `C/C(=N\NC(=S)N1CCN(Cc2ccccc2)CC1)c1ccccn1` in this test?
active

Which outcome was entered for the molecule CCCCCN(CCCCC)CC(O)c1cc2ccccc2c2ccccc12 (configuration not stated) in this test?
active

Which outcome was entered for the molecule `COc1ccc(C(=O)Cc2nc3nnc(NC(=O)Nc4ccc(Cl)cc4)n3nc2CC(=O)c2ccc(OC)cc2)cc1` in this test?
active

Which outcome was entered for the molecule `C[N+](C)(C)CCC(=O)c1ccco1` in this test?
active

Which outcome was entered for the molecule `CN(C)c1cc2nc3ccccc3nc2cc1O` in this test?
inactive

Which outcome was entered for the molecule `COc1cnn(-c2ccccc2)c(=O)c1SCc1ccc(Cl)c(Cl)c1` in this test?
inactive

* * *

Test summary: NCI Yeast Anticancer Drug Screen. Data for the mec2-1 strain (AID 157)
Experimental setup: S. cerevisiae mec2-1 strain, at 5.0 µM (retest, dose inferred, filed as 0.5), stronger effect = higher value
About 79,000 compounds went through this panel and 15% of them were active in at least one assay; those are over-represented in the sample as a whole.
Observed property: growth inhibition (%)
Express the result in % but write the number alone.

Data point: COC(=O)c1ccccc1N=NN(C)CC1OC2OC(C)(C)OC2C1OC (configuration not stated) ; growth inhibition = 17

Data point: `Nc1ccc(SSc2ccc(N)cc2)cc1` ; growth inhibition = -3

Data point: `Nc1nccc(NCCCCCCNc2ccnc(N)n2)n1` ; growth inhibition = 13

Data point: `O=C(O)CSc1nc(-c2ccccc2)c(-c2ccccc2)n1-c1ccccn1` ; growth inhibition = -6

Data point: `NC(=S)N/N=C1/C(=O)c2cccc3cccc1c23` ; growth inhibition = -2

Data point: `Cc1c(C#N)c(N)nc2c(C(N)=O)nsc12` ; growth inhibition = -2

Data point: `CCN(CC)CCOC(=O)c1ccc(N=Nc2cc(Cl)c(C)cc2O)cc1` ; growth inhibition = 29

Data point: `COC(=O)C(C#N)=C(SC)SC` ; growth inhibition = 4

Data point: CCCCCCC(O)C(CO)CCCCC (configuration not stated) ; growth inhibition = -2

Data point: `CCOC(=O)CNC(=O)Sc1ccc(C(C)(C)C)cc1C` ; growth inhibition = 22

Data point: `C=CC(=O)NC(=O)Nc1ccc(Cl)cc1` ; growth inhibition = 32

Data point: `C/C(=N\NC(=S)N1CCN(Cc2ccccc2)CC1)c1ccccn1` ; growth inhibition = 23

Data point: `CC(C)CC(CC(C)C)OP(=O)(O)OC(CC(C)C)CC(C)C` ; growth inhibition = 11

Data point: O=C1c2cc3c(cc2CC1Br)CCC3 (configuration not stated) ; growth inhibition = 99

Data point: `Cc1ccc(O)c2c(NCCCCCCNc3cc(C)[n+](C)c4c(C)ccc(O)c34)cc(C)[n+](C)c12` ; growth inhibition = 0

Data point: COC/C(Br)=C\SC#N (tested in a mixture with another compound) ; growth inhibition = -14

Data point: `C#CCNCc1ccccc1` ; growth inhibition = 18

Data point: `Nc1ccccc1SCc1csc(-c2ccc(Cl)cc2)n1` ; growth inhibition = -3

Data point: `Cc1c2cc(Cl)ccc2cc2c1ccc1ccccc12` ; growth inhibition = -7

Data point: `Clc1ccc2c(NCCCCCCNc3ccnc4cc(Cl)ccc34)ccnc2c1` ; growth inhibition = -3

Data point: `CCNCCNc1cc(O)c2c(c1O)C(=O)c1ccccc1C2=O` ; growth inhibition = 92

Data point: NC(=O)/C(=N\NC(=O)c1cc2ccccc2cc1O)C1C(=O)N(c2ccccc2)N=C1N (configuration not stated) ; growth inhibition = 6

Data point: `N#C/C(=C\c1c(Cl)cccc1Cl)c1nc2ccccc2[nH]1` ; growth inhibition = 22

Data point: C/C(=N/Nc1ccc([N+](=O)[O-])cc1[N+](=O)[O-])C1=CCC(C(C)(C)C)CC1 (configuration not stated) ; growth inhibition = -4

Data point: `COc1ccc(NC(=O)CCC(=O)CC(=O)c2ccncc2)cc1` ; growth inhibition = 4

Data point: `COc1c2occc2c(OC)c2c(C)c(C(=O)OCCN3CCOCC3)oc12` ; growth inhibition = -3

Data point: CC(=O)N1c2ccccc2C2=NN=C(N(C)C)SC21 (configuration not stated) ; growth inhibition = -15

Data point: `CCOC(=O)/C=C(\C)OCC` ; growth inhibition = -3

Data point: `Nc1ccc(S(=O)(=O)O)c2cccc(S(=O)(=O)O)c12` ; growth inhibition = -2

Data point: `Cc1cc(=O)oc2c(C)c3oc(CBr)cc3cc12` ; growth inhibition = 4

Data point: `Cc1c(CC=C(c2ccccc2)c2ccccc2)cccc1C[N+](C)(C)C` ; growth inhibition = 78

Data point: `Cc1ccc(NC(=O)c2cc3ccccc3c(N=Nc3cc(S(=O)(=O)O)ccc3O)c2O)c(C)c1` ; growth inhibition = 33

Data point: `[NH-]c1ccccc1[S-].[NH-]c1ccccc1[S-].[Zn]` ; growth inhibition = 11

Data point: `CCOC(=O)C(CCSC)C(=O)OCC` ; growth inhibition = 2

Data point: `CCCCN(CCC=C1c2ccccc2Oc2ccccc21)CCCC` ; growth inhibition = 4

Data point: COc1ccc(C(c2cc3c(cc2O)OCO3)N2CCOCC2)cc1OC (configuration not stated) ; growth inhibition = -5

Data point: `CCOC(=O)c1c(I)[nH]c(I)c1C` ; growth inhibition = 0

Data point: `CCOc1ccc2c(c1)nc1ccccc1[n+]2CC` ; growth inhibition = 7

Data point: COc1cc2c(c(OC)c1OC)-c1ccc(SC)c(=O)cc1[C@@H](NC1OC(COC(C)=O)C(OC(C)=O)C(OC(C)=O)C1OC(C)=O)CC2 (some centres not stated) ; growth inhibition = -1

Data point: `CCCCCC=C(c1cc(Br)cc(C(=O)O)c1O)c1cc(Br)cc(C(=O)O)c1O` ; growth inhibition = 0

Data point: `N=C(N)c1ccc(N=Nc2cc(/C=C/c3ccccc3)ccc2O)cc1` ; growth inhibition = 2

Data point: `Cc1c(CCl)c(=O)oc2c(C)c3occ(CCl)c(=O)c3cc12` ; growth inhibition = 20

Data point: CCN(CC)CCCC(Nc1c2ccc(Cl)cc2nc2ccc(OC)cc12)c1cccs1 (configuration not stated) ; growth inhibition = 91

Data point: `N#Cc1snc2sc(=O)sc12` ; growth inhibition = 100

Data point: `O=C(CCSCCC(=O)NNc1ccccc1)NNc1ccccc1` ; growth inhibition = -1

Data point: `Cc1cc(C)nc(/C=C/c2ccc(/C=C/c3cc(C)cc(C)n3)cc2)c1` ; growth inhibition = -8

Data point: CCC[CH2][Sn]([CH2]CCC)([O]C(=O)C(OC(C)=O)c1ccccc1)[O]C(=O)C(OC(C)=O)c1ccccc1 (configuration not stated) ; growth inhibition = 43

Each recorded value in this set is attributed to PubChem BioAssay (NCI).
